Recorded values, source patent US20120156139A1.

protocol summary: 13C T1 inversion recovery studies of L-DOPA, dopamine and partially deuterated dopamine
Type: physicochemical
measurement conditions: 13C at natural abundance, inversion recovery, 500 MHz scanner
Experimental: Inversion recovery studies were carried out on protonated L-DOPA and dopamine and partially deuterated dopamine a in order to determine the ^13C T1 relaxation times in these molecules. The inversion recovery studies were carried out on a 500 MHz scanner (Varian), equipped with a 5 mm double tuned ^13C/^1H probe. Carbon-13 signals were detected in these molecules at natural abundance. […]
endpoint name: T1 of C2 (s)
Give your result in s as a bare value.

A selection of reference data follows.
| compound | T1 of C2 [s] |
| --- | --- |
| Cl.[2H]C([2H])(N)C([2H])([2H])c1ccc(O)c(O)c1 [[1,1,2,2-D4]-dopamine HCl] | 9.3 |
| Cl.[2H]c1c([2H])c(C([2H])([2H])CN)c([2H])c(O)c1O [[D3 ring,2,2-D2]-dopamine HCl] | 4.4 |
| Cl.NCCc1ccc(O)c(O)c1 [dopamine HCl] | 1.0 |

Now consider a different compound.
Quick one: give measured T1 of C2 for N[C@@H](Cc1ccc(O)c(O)c1)C(=O)O
2.3

---

protocol summary: 13C T1 inversion recovery studies of L-DOPA, dopamine and partially deuterated dopamine
Type: physicochemical
measurement conditions: 13C at natural abundance, inversion recovery, 500 MHz scanner
Measured T1 of C1, listed per entry.

Answered examples (3):
| compound | T1 of C1 |
| --- | --- |
| Cl.[2H]c1c([2H])c(C([2H])([2H])CN)c([2H])c(O)c1O [[D3 ring,2,2-D2]-dopamine HCl] | 1.0 s |
| Cl.[2H]C([2H])(N)C([2H])([2H])c1ccc(O)c(O)c1 [[1,1,2,2-D4]-dopamine HCl] | 8.7 s |
| Cl.NCCc1ccc(O)c(O)c1 [dopamine HCl] | 1.1 s |

Then this compound:
Output measured T1 of C1 for this item: N[C@@H](Cc1ccc(O)c(O)c1)C(=O)O [L-DOPA (non deuterated), L-DOPA]
2.3 s

---

protocol summary: 13C T1 inversion recovery studies of L-DOPA, dopamine and partially deuterated dopamine
Type: physicochemical
measurement conditions: 13C at natural abundance, inversion recovery, 500 MHz scanner
T1 of C3 by entry:
Hi! Could you send only the number? It should be in s, unit omitted.

| compound | endpoint name | value observed |
| --- | --- | --- |
| Cl.[2H]c1c([2H])c(C([2H])([2H])CN)c([2H])c(O)c1O [[D3 ring,2,2-D2]-dopamine HCl] | T1 of C3 | 5.4 |
| Cl.NCCc1ccc(O)c(O)c1 [dopamine HCl] | T1 of C3 | 6.4 |
| Cl.[2H]C([2H])(N)C([2H])([2H])c1ccc(O)c(O)c1 [[1,1,2,2-D4]-dopamine HCl] | T1 of C3 | 6.3 |

Output T1 of C3 of N[C@@H](Cc1ccc(O)c(O)c1)C(=O)O [L-DOPA (non deuterated), L-DOPA]
3.9
